Just for reference, patent US8134007B2 is where these values come from.

Each entry below carries its reported IC50.
molecular target: Human Nav1.5 (Homo sapiens, UniProt Q14524); construct: expressed in transfected cells; host or cells: HEK293; experiment: Nav1.5 Assay (VIPR, HEK293 cells); assay type: cell-based; conditions: HEK293 cells expressing Human Nav1.5; average of replicates; read-out: Nav1.5 IC50
Sequence (Q14524 whole entry): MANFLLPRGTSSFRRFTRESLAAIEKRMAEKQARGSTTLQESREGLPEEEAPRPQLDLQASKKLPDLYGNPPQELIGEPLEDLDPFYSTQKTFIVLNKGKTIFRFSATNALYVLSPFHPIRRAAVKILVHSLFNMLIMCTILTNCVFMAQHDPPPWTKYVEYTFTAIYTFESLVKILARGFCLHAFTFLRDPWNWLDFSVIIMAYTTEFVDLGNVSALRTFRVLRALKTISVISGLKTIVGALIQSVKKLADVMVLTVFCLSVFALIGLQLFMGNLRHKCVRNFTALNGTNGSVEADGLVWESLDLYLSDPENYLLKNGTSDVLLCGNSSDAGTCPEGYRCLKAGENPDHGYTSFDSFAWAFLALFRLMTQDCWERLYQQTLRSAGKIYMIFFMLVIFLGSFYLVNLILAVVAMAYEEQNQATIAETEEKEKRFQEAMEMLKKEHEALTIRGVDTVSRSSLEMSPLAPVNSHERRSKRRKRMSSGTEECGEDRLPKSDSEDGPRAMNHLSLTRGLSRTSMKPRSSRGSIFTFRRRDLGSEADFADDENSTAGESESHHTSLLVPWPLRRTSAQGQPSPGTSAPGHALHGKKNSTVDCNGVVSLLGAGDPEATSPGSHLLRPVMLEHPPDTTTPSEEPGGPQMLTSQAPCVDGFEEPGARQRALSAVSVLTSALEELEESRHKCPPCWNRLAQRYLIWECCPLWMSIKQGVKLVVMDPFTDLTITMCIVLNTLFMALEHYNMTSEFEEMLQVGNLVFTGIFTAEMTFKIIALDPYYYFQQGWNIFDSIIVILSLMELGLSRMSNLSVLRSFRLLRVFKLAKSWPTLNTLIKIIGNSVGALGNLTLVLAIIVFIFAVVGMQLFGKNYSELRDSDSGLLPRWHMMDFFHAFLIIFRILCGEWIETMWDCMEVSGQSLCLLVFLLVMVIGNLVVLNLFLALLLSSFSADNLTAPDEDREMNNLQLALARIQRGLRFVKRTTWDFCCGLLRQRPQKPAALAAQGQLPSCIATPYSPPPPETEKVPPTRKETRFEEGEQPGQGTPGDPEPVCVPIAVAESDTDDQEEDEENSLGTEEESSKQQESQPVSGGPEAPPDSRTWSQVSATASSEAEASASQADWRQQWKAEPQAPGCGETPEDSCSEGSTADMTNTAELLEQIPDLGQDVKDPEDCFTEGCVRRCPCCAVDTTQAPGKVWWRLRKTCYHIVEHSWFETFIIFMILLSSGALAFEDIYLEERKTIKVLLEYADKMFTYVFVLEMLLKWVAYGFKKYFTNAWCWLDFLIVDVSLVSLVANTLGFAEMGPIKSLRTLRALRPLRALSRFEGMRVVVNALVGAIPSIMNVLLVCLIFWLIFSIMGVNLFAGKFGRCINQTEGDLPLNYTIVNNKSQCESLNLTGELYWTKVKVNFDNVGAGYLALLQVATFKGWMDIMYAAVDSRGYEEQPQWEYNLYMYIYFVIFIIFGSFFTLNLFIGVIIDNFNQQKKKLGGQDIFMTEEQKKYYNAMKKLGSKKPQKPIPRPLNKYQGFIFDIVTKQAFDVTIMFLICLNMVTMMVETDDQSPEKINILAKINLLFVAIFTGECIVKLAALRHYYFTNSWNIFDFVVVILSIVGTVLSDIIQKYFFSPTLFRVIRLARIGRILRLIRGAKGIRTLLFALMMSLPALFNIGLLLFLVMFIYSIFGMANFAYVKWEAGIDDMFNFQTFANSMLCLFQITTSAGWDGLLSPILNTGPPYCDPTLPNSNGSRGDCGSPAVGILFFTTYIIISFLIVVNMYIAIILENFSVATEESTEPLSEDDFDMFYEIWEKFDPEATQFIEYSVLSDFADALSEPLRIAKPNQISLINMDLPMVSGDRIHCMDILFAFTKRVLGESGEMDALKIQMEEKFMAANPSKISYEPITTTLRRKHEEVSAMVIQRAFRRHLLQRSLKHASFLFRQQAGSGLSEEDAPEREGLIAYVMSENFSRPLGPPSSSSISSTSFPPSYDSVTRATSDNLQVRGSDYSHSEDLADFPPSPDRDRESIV

The examples below pair each entry with its known result.
Cn1nccc1C(=O)Nc1ccc(-c2cc(F)ccc2Cl)c(N)n1: 13 µM
CCOc1ccc(F)cc1-c1ccc(NC(=O)c2ccnn2C)nc1N: > 32 µM
Cc1nocc1C(=O)Nc1ccc(-c2cc(Cl)ccc2OCC(F)(F)F)c(N)n1: 9.9 µM

Next, consider the following compound.
# query: IC50 of entry Cn1nccc1C(=O)Nc1ccc(-c2cc(F)ccc2C(F)(F)F)c(N)n1
> 32 µM

###

target: Human Nav1.5 (Homo sapiens); construct: expressed in transfected cells; host or cells: HEK293; test: Nav1.5 Assay (VIPR, HEK293 cells); format: cell-based; settings: HEK293 cells expressing Human Nav1.5; average of replicates; read-out: Nav1.5 IC50
pIC50: −log10 of the molar value.
Would you mind labelling by pIC50? At or over 5 is true, under is false.

Please review the entries below; each comes with its answer.
Cn1nccc1C(=O)Nc1ccc(-c2ccc(F)cc2Cl)c(N)n1 [Example 10]: false
Cn1nccc1C(=O)Nc1ccc(-c2cc(F)ccc2OC(F)(F)F)c(N)n1 [Example 116]: false
COc1ccc(Cl)c(-c2ccc(NC(=O)c3cnnn3C)nc2N)c1 [Example 83]: true
COCCCOc1ccccc1-c1ccc(NC(=O)c2ccnn2C)nc1N [Example 157]: false
COCc1cc(C(=O)Nc2ccc(-c3cc(F)ccc3Cl)c(N)n2)on1 [Example 96]: true

Please tell me: is the molecule N#Cc1cccc(C(=O)Nc2ccc(-c3ccccc3OC(F)(F)F)c(N)n2)c1 [Example 106] at or over 5 in terms of pIC50?
false

Is the recorded value of pIC50 equal to or greater than 5 for this molecule? COC(C)COc1ccccc1-c1ccc(NC(=O)c2ccnn2C)nc1N (centres unmarked) [Example 160]
false

API: above_or_equal(metric=pIC50, cutoff=5) for item COCCCOc1ccccc1-c1ccc(NC(=O)c2conc2C)nc1N [Example 156]
false

###

pIC50 for assorted molecules
molecular target: Human Nav1.5 (Homo sapiens); construct: expressed in transfected cells; host or cells: HEK293; assay: Nav1.5 Assay (VIPR, HEK293 cells); assay type: cell-based; settings: HEK293 cells expressing Human Nav1.5; average of replicates; read-out: Nav1.5 IC50
// field semantics: pIC50 = negative decimal log of concentration (mol/L)

Nc1nc(NC(=O)c2conc2C(F)(F)F)ccc1-c1ccccc1Cl: 4.80
Cn1nccc1C(=O)Nc1ccc(-c2cc(OC(F)(F)F)ccc2F)c(N)n1: 4.72
Cn1nccc1C(=O)Nc1ccc(-c2ccc(OC(F)(F)F)cc2)c(N)n1: 5.00
Cc1oncc1C(=O)Nc1ccc(-c2cc(Cl)cc(Cl)c2Cl)c(N)n1: 5.34
Cc1nocc1C(=O)Nc1ccc(-c2cc(OC(F)(F)F)ccc2F)c(N)n1: 5.19

What value of measured pIC50 is listed for Cc1nocc1C(=O)Nc1ccc(-c2ccccc2Cl)c(N)n1 ?
4.96

Look up pIC50 for this molecule: CCOc1ccccc1-c1ccc(NC(=O)c2ccnn2C)nc1N
4.66

###

biological target: Human Nav1.5 (Homo sapiens); construct: expressed in transfected cells; host or cells: HEK293; assay: Nav1.5 Assay (VIPR, HEK293 cells); format: cell-based; conditions: HEK293 cells expressing Human Nav1.5; average of replicates; read-out: Nav1.5 IC50
READOUT: pIC50
Interpret pIC50 as the negative base-10 log of the concentration measured in mol/L.

Cc1nocc1C(=O)Nc1ccc(-c2cc(Cl)cc(Cl)c2Cl)c(N)n1: 5.02
CCOc1ccc(Cl)c(-c2ccc(NC(=O)c3conc3C)nc2N)c1: 5.00

# next molecule below
pIC50 of Cc1nonc1C(=O)Nc1ccc(-c2cc(F)ccc2Cl)c(N)n1 on Human Nav1.5 (Homo sapiens)?
5.13

###

# key: entry, value: pIC50
target: Human Nav1.5 (Homo sapiens, UniProt Q14524); construct: expressed in transfected cells; host or cells: HEK293; experiment: Nav1.5 Assay (VIPR, HEK293 cells); format: cell-based; conditions: HEK293 cells expressing Human Nav1.5; average of replicates; read-out: Nav1.5 IC50
Formally, pIC50 is defined as -log10 of the concentration c, with c in mol/L.

Worked set:
Cn1nccc1C(=O)Nc1ccc(-c2ccc(OC(F)(F)F)c(F)c2)c(N)n1: 5.07
Nc1nc(NC(=O)c2ccccc2)ccc1-c1ccccc1OC(F)(F)F: 4.82
CC(C)COc1ccccc1-c1ccc(NC(=O)c2ccnn2C)nc1N: 4.74

Please turn your attention to the following entry.
What pIC50 appears in the records for this compound with Human Nav1.5 (Homo sapiens, UniProt Q14524)? COc1cc(Cl)cc(-c2ccc(NC(=O)c3conc3C)nc2N)c1Cl
5.00
